growth inhibition: recorded values
experimental protocol: NCI Yeast Anticancer Drug Screen. Data for the bub3 strain (AID 167)
test conditions: S. cerevisiae bub3 mutant strain, at 1.2 µM, active compounds read high
About 79,000 compounds went through this panel and 15% of them were active in at least one assay; those are over-represented in the sample as a whole.
observed property: growth inhibition (%)

molecule: COC(=O)/C=C1/OC(c2ccc(Br)cc2)=C(Br)C1=O
observed property: growth inhibition
units: %
measured value: 20
--
molecule: CC(=O)C1=C(O)C2(C)c3c(O)c(C)c(O)c(C(C)=O)c3OC2(Sc2ccccc2)CC1=O (configuration not stated)
observed property: growth inhibition
units: %
measured value: 12
--
molecule: Nc1ccc2c(=S)c3ccccc3[nH]c2c1
observed property: growth inhibition
units: %
measured value: -19
--
molecule: CCOc1ccc(C(=O)CCC(=O)O)c(C)c1
observed property: growth inhibition
units: %
measured value: -9
--
molecule: O=C(CNS(=O)(=O)Cc1ccccc1)NNc1ccccc1
observed property: growth inhibition
units: %
measured value: 1
--
molecule: CCCCCCCCN1C(=O)c2ccccc2C1=O
observed property: growth inhibition
units: %
measured value: 2
--
molecule: CN(C)c1ccc(N=Nc2ccccn2)cc1
observed property: growth inhibition
units: %
measured value: -3
--
molecule: O=[N+]([O-])c1c(/C=N/Nc2ccccc2)oc(-c2ccc3c(c2)OCO3)c1-c1ccc2c(c1)OCO2
observed property: growth inhibition
units: %
measured value: -9
--
molecule: Cc1ccc2occ/c(=N\Nc3ccccc3)c2c1
observed property: growth inhibition
units: %
measured value: -4
--
molecule: O=c1[nH]c2ccccc2c2nc3ccccc3n12
observed property: growth inhibition
units: %
measured value: -11
--
molecule: Nc1cc(F)cc2c1-c1ccc(F)cc1C2
observed property: growth inhibition
units: %
measured value: -1
--
molecule: OC(CN1CCCCC1)c1cc(Cl)c(Cl)c(Cl)c1 (configuration not stated)
observed property: growth inhibition
units: %
measured value: 3
